Taken from patent US6635668B1.

For each entry below, report its log10(Ki) value.
- ASSAYED SYSTEM: imidazoline receptor
- TEST METHOD NOTES: Imidazoline receptor binding (Tables 2 and 3)
- CONDITION LABEL: Table 2
In plain terms, each number is the log10 of measured Ki in µM.

Using the record for N=C(N)c1ccc2nc(C3=CCC=C(c4nc5ccc(C(=N)N)cc5[nH]4)N3)[nH]c2c1 [DB 205] , report its log10(Ki).
2.54

Then N=C(N)c1ccc(-c2ccc(-c3ccc(C(=N)N)cc3)[nH]2)cc1 [DB 262] ?
0.58

Then CC(C)NC(=N)c1ccc(-c2ccc(-c3ccc(C(=N)NC(C)C)cc3)o2)cc1 [DB 181] ?
0.74

Then c1cc(-c2ccc(-c3ccc(C4=NCCN4)cc3)o2)ccc1C1=NCCN1 [DB 60] ?
-0.20

Then N=C(N)c1cccc(OCCCCCOc2cccc(C(=N)N)c2)c1 [001 KAO 011] ?
-0.80

Then N=C(N)c1ccc2c(c1)[nH]c1cc(C(=N)N)ccc12 [DAP 092] ?
1.26

Then c1cc2[nH]c(CCCCc3nc4cc(C5=NCCN5)ccc4[nH]3)nc2cc1C1=NCCN1 [BIBB] ?
1.65

Then N=C(N)c1ccc2[nH]c(-c3ccc4[nH]c(-c5ccc(O)cc5)nc4c3)nc2c1 [DB 183] ?
1.82

Then N=C(NC1CCCC1)c1ccc(-c2ccc(-c3ccc(C(=N)NC4CCCC4)cc3)o2)cc1 [DB 244] ?
0.83

Then N=C(N)c1ccc2[nH]c(Cc3nc4cc(C(=N)N)ccc4[nH]3)nc2c1 [BABIM] ?
0.88

Then N=C(N)c1ccc2[nH]c(CCCCc3nc4cc(C(=N)N)ccc4[nH]3)nc2c1 [BABB] ?
0.74

Then N=C(N)c1ccc(-c2ccc(-c3ccc(C(=N)N)cc3)o2)cc1 [DB 75] ?
-0.19

Then N=C(N)c1ccc(-c2ccc(-c3ccc(C(=N)N)cc3)s2)cc1 [DB 351] ?
-0.95

Then c1cc(-c2ccc(-c3ccc(C4=NCCCN4)cc3)o2)ccc1C1=NCCCN1 [DB 103] ?
-0.63

Then N=C(N)c1ccc2[nH]c3ccc(C(=N)N)cc3c2c1 [003 KAO 111] ?
1.65
